- Test system: Hepatocyte
- experiment notes: Cytotoxicity against mouse primary hepatocytes assessed as fold change in capase3/7 activity by Caspase-Glo 3/7 assay relative to DMSO; note: test concentration or dose not given here
- Type: cell-based
Attribute: fold change (FC)
quantity measured: fold change (FC)

                            compound_smiles  quantity_measured      result
0           CCCc1oc(CCC(=O)O)c(C(=O)O)c1CCC   fold change (FC)  1.6 to 1.8
1           CCCCCc1oc(CCC(=O)O)c(C(=O)O)c1C   fold change (FC)  1.2 to 1.5
2             CCCc1oc(CCC(=O)O)c(C(=O)O)c1C   fold change (FC)  0.7 to 0.8
3         CCCc1oc(CCC(=O)OC)c(C(=O)OC)c1CCC   fold change (FC)  0.8 to 0.9
4         CCCCCc1oc(CCC(=O)OC)c(C(=O)OC)c1C   fold change (FC)    1 to 1.2
5  CCC[C@H]1C[C@H](C(=O)O)[C@@H](CCC(=O)O)O1   fold change (FC)           2
6           CCc1oc(CCC(=O)OC)c(C(=O)OC)c1CC   fold change (FC)    0.9 to 1
7             CCc1oc(CCC(=O)O)c(C(=O)O)c1CC   fold change (FC)         1.1
8                     CCCc1oc(CCC(=O)O)cc1C   fold change (FC)         0.7
